Where do these numbers come from? They come from the array DNA melting data of Ke et al. (doi:10.1101/2024.01.08.574731).

- method: folding enthalpy; higher = less favourable; fluorescence melt of hairpins on a sequencing array, two-state fit
- particulars: sodium 0.088 M
Here the recorded folding enthalpy is given for each entry.
Lab note: write values as number then unit, every time.

Some entries whose results are on file:
GATTGTGCGAAAGCAATC (((..(((....)))))) ... -12.8 kcal/mol
GCGGCAACCCGC ((((....)))) ... -24.7 kcal/mol

Given the sequence GCTGTAGGAAACCACAGC (((((.(....).))))) , what is its reported folding enthalpy?
-36.3 kcal/mol

Given the sequence GAGGGACGAAAGTCGCTC (((.(((....))).))) , what is its reported folding enthalpy?
-34.3 kcal/mol

Given the sequence GGCGAGGGAAACCTTGCC (((.(((....))).))) , what is its reported folding enthalpy?
-44.4 kcal/mol

Given the sequence GATCAAGGCCTTGATC ((((((....)))))) , what is its reported folding enthalpy?
-51.6 kcal/mol

Given the sequence GCTGTAGAAATACAGC ((((((....)))))) , what is its reported folding enthalpy?
-34.7 kcal/mol
